# System: U2OS
# EXPERIMENT: Incucyte cell viability with U2OS; also: unitless GR value; below 1 slowed growth and below 0 cell loss
# Assay type: toxicity, cell-based
# PARTICULARS: human, 6 h, 10 µM, compound concentration 10 uM, replicate number 2
Labelling: Growth Rate reported below 0.6 becomes 1; at or above becomes -1.

Determine whether this compound shows Growth Rate lower than 0.6 (ties excluded): Clc1ccccc1C(c1ccccc1)(c1ccccc1)n1ccnc1 -1

Lab log: compare recorded Growth Rate with 0.6; is it strictly lower for Cc1nccn1CC1CCc2c(c3ccccc3n2C)C1=O.Cl (stereo unspecified) ? 1

Field: below-cutoff. Rule: recorded Growth Rate strictly less than 0.6. Subject: CC(=O)Nc1cccc(-n2c(=O)n(C3CC3)c(=O)c3c(Nc4ccc(I)cc4F)n(C)c(=O)c(C)c32)c1 -1

Does the reported Growth Rate of C[S+](C)[O-] [DIMETHYL SULFOXIDE] stay below 0.6? 1

Determine if CCCCCNC(=O)N1CCC(CN(Cc2ccc(Cl)cc2)Cc2ccc([N+](=O)[O-])s2)C1 (stereo unspecified) shows Growth Rate strictly lower than 0.6. -1

In the record for COc1cc(N2CCC(N3CCN(C)CC3)CC2)ccc1Nc1ncc(Cl)c(Nc2ccccc2S(=O)(=O)C(C)C)n1 , is Growth Rate less than 0.6? -1

Given FC(F)(F)Oc1ccc(-c2ccc3nnc(C(F)(F)F)n3c2)cc1 , is recorded Growth Rate strictly lower than 0.6? -1

Dear colleague, could you confirm whether Growth Rate of COc1ccccc1-n1nc(C2CC(C)(C)OC(C)(C)C2)cc1-c1ccc(Cl)cc1 falls below 0.6? Thanks. 1

Consider c1ccc2nc(N3CCNCC3)ccc2c1 . Does its Growth Rate lie strictly below 0.6? 1

Hi there! Is Growth Rate for CCN1C(=O)C(c2cccc(C(=O)O)c2)C(=O)N(c2ccccc2)c2cc(C(F)(F)F)ccc21 (stereo unspecified) below 0.6, do you know? -1

Criterion: Growth Rate strictly below 0.6. Is it met by CC(=O)N1CCN([C@H]2CCC[C@@H](NC(=O)c3cc4c(F)ccc(C)c4[nH]3)C2)CC1.O=C(O)C(F)(F)F ? -1

Determine if CCN1CCN(Cc2ccc(NC(=O)c3ccc(C)c(NC(=O)c4cncc(-c5cccs5)c4)c3)cc2C(F)(F)F)CC1 shows Growth Rate strictly lower than 0.6. 1

Lab note: Growth Rate threshold 0.6. Does this compound come in strictly under it? Cc1nsc(Nc2cnc(C(F)(F)F)cn2)c1C(=O)Nc1ccc(O[C@H]2CCCN(CC(F)(F)F)C2)nc1 -1

Criterion: Growth Rate strictly below 0.6. Is it met by Cl.Cl.O=[N+]([O-])c1ccc(CN2CCOCCOCCN(Cc3ccc([N+](=O)[O-])cc3)CCOCC2)cc1 ? 1

Quick check: Growth Rate of CCc1c(-c2ccc3[nH]ncc3c2)cnc(N)c1-c1ccc(O)cc1 under 0.6? -1

Given COc1cc(C(=O)O)ncc1C#Cc1ccccc1NS(=O)(=O)c1cccc2c(N(C)C)ccnc12 , is recorded Growth Rate strictly lower than 0.6? -1

Consider COc1cc(F)ccc1-c1ncnc(Nc2cccc(C[S@](C)(=N)=O)c2)n1 . Does its Growth Rate lie strictly below 0.6? 1

Quick check: Growth Rate of O=C(NCC1(N2CCN(c3ccccc3)CC2)CCOCC1)c1cccnc1Sc1ccccc1 under 0.6? -1

Please indicate whether the reported Growth Rate of O=C1Nc2nc(-c3c(O)cccc3OCC3CC3)cc([C@@H]3CCCNC3)c2CO1 is strictly below 0.6. 1

In the record for [2H]C([2H])([2H])NC(=O)c1nnc(NC(=O)C2CC2)cc1Nc1cccc(-c2ncn(C)n2)c1OC , is Growth Rate less than 0.6? -1

Report whether reported Growth Rate is lower than 0.6 (strictly) for O=C(O)CCCCCC[C@@H]1C(=O)NC(=O)N1CCC(O)C1CCCCC1 (stereo partly specified) -1

----------
# Test system: U2OS
# EXPERIMENT: Incucyte cell viability with U2OS; also: unitless GR value; below 1 slowed growth and below 0 cell loss
# Type: toxicity, cell-based
# PARTICULARS: human, 24 h, 10 µM, compound concentration 10 uM, replicate number 2
PARAMETER: Growth Rate
// no unit, no text: just the number

Look at this compound and give its reported Growth Rate. [2H]C([2H])([2H])NC(=O)c1nnc(NC(=O)C2CC2)cc1Nc1cccc(-c2ncn(C)n2)c1OC 0.74

Could you tell me which Growth Rate is on file for COc1cnccc1Nc1nc(-c2nn(Cc3c(F)cc(OCCO)cc3F)c3ccccc23)ncc1OC ? 0.09

// Growth Rate lookup, key: Cc1cc(-c2nc(-c3ccc(OC(F)(F)F)cc3)no2)nn1Cc1ccnc(N2CCN(C3CC3)CC2)c1 0.71

Give the measured Growth Rate of CC(Sc1nc2c(cnn2-c2cccc(Cl)c2)c(=O)[nH]1)C(N)=O (configuration not stated) . 0.85

What value of measured Growth Rate is listed for O=C(Nc1cc(-c2cn[nH]c2)ccc1N1CCOCC1)c1ccc(-c2ccc3ncccc3c2)o1 ? 0.4

# lookup: Growth Rate of Cl.Cl.N=C(N)NCCC[C@H](NC(=O)CC1(CC(=O)N2CCN(C3c4ccccc4NC(=O)c4ccccc43)CC2)CCCC1)C(=O)NCCn1c(=O)n(-c2ccccc2)n(-c2ccccc2)c1=O (some centres not stated) 0.99

Which Growth Rate is listed for CSc1nc2c(c(=O)n(C)c(=O)n2C)n1C ? 0.97

----------
# System: U2OS
# EXPERIMENT: Incucyte cell viability with U2OS; also: unitless GR value; below 1 slowed growth and below 0 cell loss
# Assay type: toxicity, cell-based
# PARTICULARS: human, 18 h, 10 µM, compound concentration 10 uM, replicate number 1
Kindly return TRUE if reported Growth Rate is no lower than 0.8; return FALSE if it is lower.

Does C[C@@H](Cn1c(=O)[nH]/c(=N\c2ccc(Oc3ccccn3)cc2)n(Cc2ccc(Cl)cc2)c1=O)C(=O)O have a reported Growth Rate of at least 0.8? TRUE

Growth Rate >= 0.8 for CN[C@@H](C)C/C=C/c1cncc(OC(C)C)c1 ? TRUE

Threshold query (Growth Rate >= 0.8) on Nc1ccc(S(=O)(=O)Nc2ccnn2-c2ccccc2)cc1 TRUE

Has CCn1c(-c2ccncc2)cc2c1CCNC2=O a recorded Growth Rate greater than or equal to 0.8? FALSE

Evaluate CC(C)(C)c1ccc(-c2coc3ccc(-c4cn[nH]c4)nc23)cc1 : Growth Rate at minimum 0.8? FALSE

Is Growth Rate at least 0.8? Consider COc1ccc2c(O[C@@H]3C[C@H]4C(=O)N[C@]5(C(=O)NS(=O)(=O)C6(C)CC6)CC5/C=C\CCCCC[C@H](NC(=O)c5ccn(C)n5)C(=O)N4C3)cc(OC(C)C)nc2c1C (stereo partly specified) TRUE

Reported Growth Rate at or above 0.8? CC1(C)OC(=O)c2ccc(Nc3ncc(-c4nnco4)c(N[C@H](CO)c4ccccc4)n3)cc21 FALSE

Check the entry CC(C)(C)NC(=O)c1cncn1C1CCN(c2ccc(-c3nnc(C(F)(F)F)o3)cn2)CC1 : does Growth Rate equal or exceed 0.8? FALSE

Check this molecule for Growth Rate at or above 0.8: CN(C)CCOc1ccc(/C(=C(/CCCO)c2ccccc2)c2ccc(O)cc2)cc1 TRUE

Quick check: does CN(C)CC#Cc1ccc2[nH]c3c(c2c1)-c1nc(N)ncc1CCC3 have Growth Rate greater than or equal to 0.8? TRUE

Does Growth Rate meet or surpass 0.8 for C[C@@H](CO)CCC[C@@H](C)[C@H]1CC[C@H]2[C@@H]3CC=C4C[C@@H](O)CC[C@]4(C)[C@H]3CC[C@]12C ? TRUE

Growth Rate >= 0.8 for O=c1cc(-c2ccccc2)oc2c1ccc1ccccc12 ? TRUE

API: above_or_equal(metric=Growth Rate, cutoff=0.8) for item O=C(Nc1ccc(Cl)c(-c2ccccn2)c1)c1cccc(COc2ccc(Br)cc2CNCCO)c1.O=CO FALSE

Check this molecule for Growth Rate at or above 0.8: C[S+]([O-])c1ccc(-c2nc(-c3cccc(I)c3)c(-c3ccncc3)[nH]2)cc1 (stereo unspecified) TRUE

Is reported Growth Rate greater than or equal to 0.8 here: COCCNc1nc2ccc(C#CC3(O)CCCCC3)cc2n1-c1ccnc(N)n1 TRUE

Assess whether reported Growth Rate for Cc1nc(-c2ccc(C(F)(F)F)cc2)sc1C(=O)NCc1ccc(OC(C)(C)C(=O)O)cc1 sits at 0.8 or higher. TRUE

Record CC(C)Oc1ccc(Cc2ccc(NC3=NCCN3)cc2)cc1 ; criterion: Growth Rate no lower than 0.8. Met? FALSE

Growth Rate >= 0.8 for O=C1COc2cc(C(=O)N(Cc3ccc(C(=O)Nc4ccncn4)cc3)C3CC3)ccc2N1 ? FALSE

State whether the measured Growth Rate reaches 0.8, counting equality as reaching it, for CNC(=O)c1cc(C(=O)NC2CC2)cn(Cc2ccccc2)c1=O FALSE

Check this molecule for Growth Rate at or above 0.8: COc1c(C(=O)/C=C/c2ccccc2)c(O)c(OC)c2occc12 FALSE

Could you please find out whether CC(C)c1nc2c(c3c1[C@H](c1ccc(C(F)(F)F)cc1)OC31CCOCC1)[C@H](O)CC(C)(C)C2 has Growth Rate that meets 0.8 or exceeds it? TRUE

Assess whether reported Growth Rate for Cn1c(Nc2c(Cl)cccc2Cl)nc2ccc3nc[nH]c(=O)c3c21 sits at 0.8 or higher. TRUE

Hi, just wondering whether COc1cc(C(N)=O)ccc1Nc1ncc2c(n1)N(CCC(C)C)[C@H](C)C(=O)N2C shows Growth Rate of 0.8 or higher. FALSE

Say whether CCN(C(=O)CO)[C@H]1CN(/C(=N\C#N)Nc2cccc(OC(F)F)c2)N=C1c1ccc(Cl)c(Cl)c1 shows Growth Rate of 0.8 or more. FALSE

Hello, I need to know if Cc1cc([N+](=O)[O-])c(NS(=O)(=O)c2cccc(C(=O)O)c2)cc1-c1cccnc1 has measured Growth Rate not below 0.8. Thanks! TRUE

Check if Growth Rate >= 0.8 (inclusive). Item: O=C1CN(c2ccccc2F)C(NCCN2CCOCC2)=C1c1nc2cc(Br)ccc2c(=O)[nH]1 TRUE

State whether the measured Growth Rate reaches 0.8, counting equality as reaching it, for O=C(Nc1cc(C(F)(F)F)cc(C(F)(F)F)c1)c1cc(Cl)ccc1O FALSE

Hi, just wondering whether Nc1ncnc2c1c(I)cn2[C@@H]1O[C@H](CO)[C@@H](O)[C@H]1O shows Growth Rate of 0.8 or higher. FALSE

Is Growth Rate for O=C(O)[C@]1(Cc2cccc(Nc3nccs3)n2)CC[C@@H](Oc2cccc(Cl)c2F)CC1 at or above 0.8? FALSE
